Let's look at some molecules and their measured Burkin Assay in Myoblasts, signal relative to DMSO.
test system: α7 integrin (LacZ reporter in α7βgal+/− myoblasts); assay: Myoblast α7+/LacZ integrin FDG assay (Burkin assay in myoblasts, 96-well); type: cell-based, mouse; conditions: 0.5 uM; α7+/LacZ myoblasts, 96-well
Respond numerically, and do not add a unit to the figure.

As a guide, the following entries are already answered.
Cc1cc(OCC(=O)NC(C)C)ccc1Cl    0.999
COc1ccc(OC)c(NC(=O)CN2CCC(NC(=O)c3ccccc3C)CC2)c1    1.0132

Look up Burkin Assay in Myoblasts, signal relative to DMSO: O=c1oc2c(-c3cccc(F)c3)cc(O)cc2s1 0.9998

Request: Cc1nc2c(cnn2-c2ccccc2)c(=O)n1/N=C/c1ccccc1 1.02

----------
tested on: α7 integrin (LacZ reporter in α7LacZ+/− myoblasts); assay: qHTS of the LOPAC library and MLSMR (online screen, α7LacZ+/− myoblasts); conditions: Mus musculus, Myoblast, 48 h, read-out: Activity at 7.660 uM [%] **
resultType: activation at 7.66 µM (%)
Just the number in %, nothing appended.

As a guide, the following entries are already answered.
Cc1cccn2c(=O)c3cc(C(=O)NC4CCCCC4)n(C)c3nc12 [Compound 40]    25.2
Cc1ccc(CNc2ncnc(N)c2[N+](=O)[O-])cc1 [Compound 120]    63.4
CCc1ccc(Sc2cc(C(=O)NCCN3CCOCC3)c3ccccc3n2)cc1 [Compound 214]    43.9
C/C(=N\OCC(=O)OC(C)C(=O)Nc1ccc(C(N)=O)cc1)c1ccc2c(c1)OCO2 (centres unmarked) [Compound 70]    57.2
COc1ccccc1CNc1cc(C)ccn1 [Compound 31]    53.2
COc1cc2c(cc1NC(=O)Cc1ccc(C)cc1)oc1ccccc12 [Compound 5]    87.2
O=C(COc1cc2oc(=O)c3c(c2cc1Cl)CCCC3)NC[C@H]1CC[C@H](C(=O)O)CC1 [Compound 95]    36.2
COc1cc(/C=C2/C(=N)N3C(SC)=NSC3=NC2=O)ccc1OC(=O)c1ccco1 [Compound 30]    55.5

Look up activation at 7.66 µM: O=C(Nc1ccc(S(=O)(=O)Nc2nccs2)cc1)c1ccccc1OC(F)F [Compound 137] -1.67

Request: CNP(=O)(Oc1ccccc1)OC12CC3CC(CC(C3)C1)C2 (centres unmarked) [Compound 182] 34.7

Request: O=C(O)c1cc(/N=C/c2c(O)oc3ccccc3c2=O)ccc1O [Compound 48] 76.6

----------
Let's look at some molecules and their measured CMV-LACZ in Myotubes, signal relative to DMSO.
system: β-galactosidase in CMV-LacZ C2C12 myotubes; test: CMV-LacZ secondary screen in C2C12 myotubes (β-Gal stabilizing assay); assay type: cell-based, mouse; settings: 1 uM; C2C12 CMV-LacZ myotubes; fold relative to DMSO
Respond numerically, and do not add a unit to the figure.

As a guide, the following entries are already answered.
Cn1cc(CN(CCO)Cc2cccs2)c(-c2ccccc2F)n1    0.8859
COC(=O)Cn1c(=O)c2c(nc3n2CC(C)CN3Cc2ccccc2)n(C)c1=O (stereo not drawn)    0.7474
CCc1nc2ccccc2c(C(=O)NCc2ccccc2)c1C    1.1333
CSc1ccc(S(=O)(=O)NCc2ccccc2)cc1    1.0411
CCC(=O)c1ccc(OCC(O)CN2CC(C)OC(C)C2)cc1.O=C(O)C(=O)O (stereo not drawn)    0.9863

Look up CMV-LACZ in Myotubes, signal relative to DMSO: Cc1nc(Nc2ccccc2F)c2oc3ccccc3c2n1 1.1457

Request: Cc1cccc(Cn2cnc3c(nnn3Cc3ccc(Cl)cc3)c2=O)c1 1.0143

Request: N#C/C(=C/c1ccc(N2CCOCC2)o1)C(=O)Nc1ccccc1 0.9514

Request: O=C(NCc1ccccc1)c1csc(-c2cccnc2)n1 1.0743
